Hey, just so you know, these numbers are from patent US20250129086A1.

- assay target: EGFR (Homo sapiens, UniProt P00533, DEL746-750)
- Construct: host or cells: HCC827
- Sequence (P00533 with tags, fused parts or gaps DEL746-750): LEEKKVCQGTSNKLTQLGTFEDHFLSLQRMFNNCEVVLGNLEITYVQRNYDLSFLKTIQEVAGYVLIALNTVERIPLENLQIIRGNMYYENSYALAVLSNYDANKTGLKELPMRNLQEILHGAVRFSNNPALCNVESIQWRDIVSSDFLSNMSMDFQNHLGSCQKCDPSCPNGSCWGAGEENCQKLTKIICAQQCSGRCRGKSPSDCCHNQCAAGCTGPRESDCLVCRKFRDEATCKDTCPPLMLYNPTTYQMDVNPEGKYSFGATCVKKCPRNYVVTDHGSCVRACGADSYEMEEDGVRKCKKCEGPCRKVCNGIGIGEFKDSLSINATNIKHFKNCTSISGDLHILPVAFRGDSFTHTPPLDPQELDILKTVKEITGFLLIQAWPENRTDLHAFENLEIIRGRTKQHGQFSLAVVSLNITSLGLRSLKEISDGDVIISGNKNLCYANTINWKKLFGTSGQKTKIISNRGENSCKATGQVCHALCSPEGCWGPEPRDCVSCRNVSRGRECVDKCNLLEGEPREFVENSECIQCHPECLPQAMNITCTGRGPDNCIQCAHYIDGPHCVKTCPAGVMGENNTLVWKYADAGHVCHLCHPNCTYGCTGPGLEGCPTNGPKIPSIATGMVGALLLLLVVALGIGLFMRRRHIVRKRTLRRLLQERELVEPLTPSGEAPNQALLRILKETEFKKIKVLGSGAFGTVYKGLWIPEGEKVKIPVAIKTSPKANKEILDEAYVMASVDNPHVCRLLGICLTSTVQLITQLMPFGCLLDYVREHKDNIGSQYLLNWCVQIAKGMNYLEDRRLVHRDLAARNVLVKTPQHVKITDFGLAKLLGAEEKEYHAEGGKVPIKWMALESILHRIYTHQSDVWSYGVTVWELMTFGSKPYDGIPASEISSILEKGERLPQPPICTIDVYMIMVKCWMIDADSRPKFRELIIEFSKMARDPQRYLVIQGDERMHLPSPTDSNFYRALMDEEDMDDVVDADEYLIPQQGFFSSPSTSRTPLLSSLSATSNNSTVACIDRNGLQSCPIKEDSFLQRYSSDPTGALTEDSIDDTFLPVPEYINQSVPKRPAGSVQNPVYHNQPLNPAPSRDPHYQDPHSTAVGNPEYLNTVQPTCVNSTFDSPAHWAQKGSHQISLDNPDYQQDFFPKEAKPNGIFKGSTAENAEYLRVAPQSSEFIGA
- experiment: EGFR PROTAC In Cell Western assay in HCC827
- Type: cell-based
- setup conditions: Table 5; HCC827, EGFR degradation, 16 hours of incubation
reported property: DC50 (nM)

[
  {
    "molecule": "COc1cc(N2CCC(N3CCN(C(=O)C4CCN(CC5CCN(c6ccc7c(c6)C(=O)N(C6CCC(=O)NC6=O)C7=O)CC5)CC4)CC3)CC2)ccc1Nc1ncc(Cl)c(Nc2ccccc2P(C)(C)=O)n1 (stereo not shown) [Comparative Compound 2, reference compound]",
    "reported property": "DC50",
    "value unit": "nM",
    "value observed": 22.3
  },
  {
    "molecule": "COc1cc(N2CCN(C(=O)CN3CCC(c4ccc(NC5CCC(=O)NC5=O)cc4)CC3)CC2)ccc1Nc1ncc(Cl)c(Nc2ccccc2C(C)=O)n1 (stereo not shown) [Compound T-12]",
    "reported property": "DC50",
    "value unit": "nM",
    "value observed": 15.6
  }
]

I: CNC(=O)c1ccccc1Nc1nc(Nc2ccc(N3CCN(C(=O)CN4CCC(c5ccc(NC6CCC(=O)NC6=O)cc5)CC4)CC3)cc2OC)ncc1Cl (stereo not shown) [Compound T-184]
II: COc1cc(N2CCC(N3CCN(C(=O)CCCCN4CCN(c5ccc6c(c5)C(=O)N(C5CCC(=O)NC5=O)C6=O)CC4)CC3)CC2)ccc1Nc1ncc(Cl)c(Nc2ccccc2N(C)S(C)(=O)=O)n1 (stereo not shown) [Comparative Compound 3, reference compound]
Query: Which of these two has the smaller recorded DC50: I or II ? Your answer should be the label attached to the chosen record.
Result: I

====

- assay target: EGFR (Homo sapiens, UniProt P00533, DEL746-750)
- Construct: host or cells: HCC827
- experiment: EGFR PROTAC In Cell Western assay in HCC827
- Type: cell-based
- setup conditions: HCC827, Table 4; HCC827, EGFR degradation, 16 hours of incubation
reported property: Dmax

Consider the worked cases shown below.
[
  {
    "molecule": "COc1cc(N2CCC(N3CCN(C(=O)CCCCN4CCN(c5ccc6c(c5)C(=O)N(C5CCC(=O)NC5=O)C6=O)CC4)CC3)CC2)ccc1Nc1ncc(Cl)c(Nc2ccccc2N(C)S(C)(=O)=O)n1 (centres unmarked) [Comparative Compound 3, reference compound]",
    "Dmax": "50 to 70%"
  },
  {
    "molecule": "COc1cc(N2CCN(C(=O)CN3CCC(c4ccc(NC5CCC(=O)NC5=O)cc4)CC3)CC2)ccc1Nc1ncc(Cl)c(Nc2ccccc2C(C)=O)n1 (centres unmarked)",
    "Dmax": "70 to 100%"
  },
  {
    "molecule": "COc1cc(N2CCC(N3CCN(C(=O)C4CCN(CC5CCN(c6ccc7c(c6)C(=O)N(C6CCC(=O)NC6=O)C7=O)CC5)CC4)CC3)CC2)ccc1Nc1ncc(Cl)c(Nc2ccccc2P(C)(C)=O)n1 (centres unmarked) [Comparative Compound 2, reference compound]",
    "Dmax": "50 to 70%"
  },
  {
    "molecule": "COc1cc(N2CCN(CCN3CCC(c4ccc(NC5CCC(=O)NC5=O)cc4)CC3)CC2)ccc1Nc1ncc(Cl)c(Nc2ccccc2C(C)=O)n1 (centres unmarked)",
    "Dmax": "50 to 70%"
  }
]

Next, consider the following molecule.
# Dmax (molecule: COc1cc(N2CCN(C(=O)CN3CCC(c4ccc(NC5CCC(=O)NC5=O)cc4)CC3)CC2C)ccc1Nc1ncc(Cl)c(Nc2ccccc2C(C)=O)n1 (centres unmarked) ) is 50 to 70%
